Test system: Felis catus
measurement_notes: Sedative-hypnotic activity in cat assessed as increase in total sleep time at 0.5 mg/kg, po administered with diet for 15 to 20 mins measured for 14 hrs
Assay type: functional
measurement_name: Time (min)

• CCCCCC(C)C(C)c1cc(O)c2c(c1)OC(C)(C)C1=C2CCC1 (centres undefined) = 59
• CCCCCC(C)C(C)c1cc(O)c2c(c1)OC(C)(C)C1=C2CC(C)CC1 (centres undefined) = 62
• CCCCCC(C)C(C)c1cc(O)c2c(c1)OC(C)(C)C1=C2C(C)CC1 (centres undefined) = 58
• CCCCCC(C)C(C)c1cc(O)c2c(c1)OC(C)(C)C1=C2C(C)CCC1 (centres undefined) = 54

Provenance of the data: ChEMBL document CHEMBL3272350
